Entries and their Activity values follow.
Tested on: PBMC
Experiment: Cytotoxicity against human PBMC assessed as reduction in cell viability at 6.25 ug/ml after 30 mins by Neutral red dye-based phase-contrast inverted microscopic analysis relative to control
Details: 0.5 h
Write it as a number; the unit % goes unstated.

Example results:
In [3]: df
Out[3]:
                                 smiles_str  units_of_measure  value_reported
0  COc1ccc(-c2nn(-c3ccccc3)cc2C(=O)N/N=C/c2cccc(O)c2)cc1                 %          -19.18
1  COc1ccc(-c2nn(-c3ccccc3)cc2C(=O)N/N=C/c2cc(OC)c(OC)c(OC)c2)cc1                 %              43
2  C=CCn1c(-c2ccc(Br)cc2)cs/c1=N/NC(=O)c1cn(-c2ccccc2)nc1-c1ccc(OC)cc1                 %            8.46

For the next question, use this molecule.
Fill in: Activity of COc1ccc(-c2nn(-c3ccccc3)cc2C(=O)N/N=c2/scc(-c3ccccc3)n2-c2ccccc2)cc1 is ___
-6.2

----------
Test system: Plasmodium berghei
Assay: Anti-plasmodial activity against Plasmodium berghei ANKA infected in mouse assessed as mean survival time at 0.048 mmol/kg/day, po administered as single dose at 24 hrs time interval from day 1 to day 3 and measured 96 hrs post infection (reference value: 4.33 +/- 0.7 day)
Assay type: functional
Tick yes if MST is 9 days or greater. Tick no if MST is less than 9 days.

Known results for compounds:
                                   compound  qualitative_label
0  COc1ccc(-c2nn(-c3ccccc3)cc2C(=O)N/N=C2/SCC(=O)N2c2ccccc2)cc1                yes
1  COc1ccc(-c2nn(-c3ccccc3)cc2-c2n[nH]c(=S)n2-c2ccccc2)cc1                 no

Quick check: does COc1ccc(-c2nn(-c3ccccc3)cc2C(=O)N/N=c2/scc(-c3ccc(Br)cc3)n2-c2ccccc2)cc1 have MST greater than or equal to 9 days?
yes

Quick check: does COc1ccc(-c2nn(-c3ccccc3)cc2C(=O)NNC(C)=O)cc1 have MST greater than or equal to 9 days?
no

Quick check: does COc1ccc(-c2nn(-c3ccccc3)cc2C(=O)N/N=C/c2ccc(F)cc2)cc1 have MST greater than or equal to 9 days?
yes

----------
Tested on: PBMC
Test: Cytotoxicity against human PBMC assessed as reduction in cell viability at 100 ug/ml after 30 mins by Neutral red dye-based phase-contrast inverted microscopic analysis relative to control
Details: 0.5 h
measured_property: Activity (%)
Write it as a number; the unit % goes unstated.

Example results:
                                 smiles_str  value_reported
0  COc1ccc(-c2nn(-c3ccccc3)cc2C(=O)N/N=C/c2cccc(O)c2)cc1           12.78
1  COc1ccc(-c2nn(-c3ccccc3)cc2C(=O)N/N=c2/scc(-c3ccccc3)n2-c2ccccc2)cc1           48.27
2  COc1ccc(-c2nn(-c3ccccc3)cc2C(=O)N/N=C/c2cc(OC)c(OC)c(OC)c2)cc1           77.93

Fill in: Activity of C=CCn1c(-c2ccc(Br)cc2)cs/c1=N/NC(=O)c1cn(-c2ccccc2)nc1-c1ccc(OC)cc1 is ___
39.93

----------
Test system: Plasmodium berghei
Test: Anti-plasmodial activity against Plasmodium berghei ANKA infected in mouse assessed as mean survival time at 0.048 mmol/kg/day, po administered as single dose at 24 hrs time interval from day 1 to day 3 and measured 96 hrs post infection (reference value: 4.33 +/- 0.7 day)
Type: functional
measured_property: MST (days)
Write it as a number; the unit days goes unstated.

>>> df
                                 smiles_str  measured_property  units_of_measure  value_reported
0  C=CCn1c(-c2ccccc2)cs/c1=N/NC(=O)c1cn(-c2ccccc2)nc1-c1ccc(OC)cc1                MST              days            7.33
1  C=CCNC(=S)NNC(=O)c1cn(-c2ccccc2)nc1-c1ccc(OC)cc1                MST              days            6.66
2  COc1ccc(-c2nn(-c3ccccc3)cc2C(=O)NNC(=S)Nc2ccccc2)cc1                MST              days            6.66
3  C=CCN1C(=O)CS/C1=N/NC(=O)c1cn(-c2ccccc2)nc1-c1ccc(OC)cc1                MST              days           11.33

For the next question, use this molecule.
Fill in: MST of COc1ccc(-c2nn(-c3ccccc3)cc2C(=O)N/N=C/c2ccncc2)cc1 is ___
8.83

----------
Tested on: Erythrocyte
Experiment: Antihemolytic activity in RBC (unknown origin) at 20 ug/ml relative to control
Entries and their Activity values follow.
Write it as a number; the unit % goes unstated.

Example results:
                                 smiles_str  value_reported
0  COc1ccc(-c2nn(-c3ccccc3)cc2C(=O)N/N=C/c2cccc(O)c2)cc1              40
1  C=CCn1c(-c2ccc(Br)cc2)cs/c1=N/NC(=O)c1cn(-c2ccccc2)nc1-c1ccc(OC)cc1              59
2  COc1ccc(-c2nn(-c3ccccc3)cc2C(=O)N/N=C/c2cc(OC)c(OC)c(OC)c2)cc1              85

For the next question, use this compound.
# query: Activity | item COc1ccc(-c2nn(-c3ccccc3)cc2C(=O)N/N=c2/scc(-c3ccccc3)n2-c2ccccc2)cc1 | system: Erythrocyte
79

----------
Entries and their Activity values follow.
Tested on: PBMC
Test: Cytotoxicity against human PBMC assessed as reduction in cell viability at 25 ug/ml after 30 mins by Neutral red dye-based phase-contrast inverted microscopic analysis relative to control
Conditions: 0.5 h
Write it as a number; the unit % goes unstated.

>>> df
                                 smiles_str  value_reported
0  COc1ccc(-c2nn(-c3ccccc3)cc2C(=O)N/N=c2/scc(-c3ccccc3)n2-c2ccccc2)cc1           -1.63
1  C=CCn1c(-c2ccc(Br)cc2)cs/c1=N/NC(=O)c1cn(-c2ccccc2)nc1-c1ccc(OC)cc1           16.05

Fill in: Activity of COc1ccc(-c2nn(-c3ccccc3)cc2C(=O)N/N=C/c2cc(OC)c(OC)c(OC)c2)cc1 is ___
60

Fill in: Activity of COc1ccc(-c2nn(-c3ccccc3)cc2C(=O)N/N=C/c2cccc(O)c2)cc1 is ___
54.42

----------
System: Erythrocyte
Assay: Antihemolytic activity in RBC (unknown origin)
Type: functional
Entries and their Activity values follow.
Write it as a number; the unit % goes unstated.

Example results:
>>> print(df.to_string())
                                 smiles_str  value_reported
0  COc1ccc(-c2nn(-c3ccccc3)cc2C(=O)N/N=C/c2cc(OC)c(OC)c(OC)c2)cc1              41
1  COc1ccc(-c2nn(-c3ccccc3)cc2C(=O)N/N=c2/scc(-c3ccccc3)n2-c2ccccc2)cc1              41
2  COc1ccc(-c2nn(-c3ccccc3)cc2C(=O)N/N=C/c2cccc(O)c2)cc1              32

Fill in: Activity of C=CCn1c(-c2ccc(Br)cc2)cs/c1=N/NC(=O)c1cn(-c2ccccc2)nc1-c1ccc(OC)cc1 is ___
16

----------
Tested on: PBMC
Assay: Cytotoxicity against human PBMC assessed as reduction in cell viability after 30 mins by Neutral red dye-based phase-contrast inverted microscopic analysis
Conditions: 0.5 h
Entries and their IC50 values follow.
Write it as a number; the unit µM goes unstated.

Fill in: IC50 of COc1ccc(-c2nn(-c3ccccc3)cc2C(=O)N/N=c2/scc(-c3ccccc3)n2-c2ccccc2)cc1 is ___
190

Fill in: IC50 of COc1ccc(-c2nn(-c3ccccc3)cc2C(=O)N/N=C/c2cccc(O)c2)cc1 is ___
1000

Fill in: IC50 of COc1ccc(-c2nn(-c3ccccc3)cc2C(=O)N/N=C/c2cc(OC)c(OC)c(OC)c2)cc1 is ___
31.2

Fill in: IC50 of C=CCn1c(-c2ccc(Br)cc2)cs/c1=N/NC(=O)c1cn(-c2ccccc2)nc1-c1ccc(OC)cc1 is ___
222

----------
Assay: Selectivity ratio of IC50 for human PBMC to IC50 for chloroquine resistant Plasmodium falciparum RKL9
Assay type: toxicity
Conditions: read-out: Ratio IC50
Entries and their selectivity ratio values follow.
Field format: numeric only.

>>> df
                                 smiles_str  value_reported
0  COc1ccc(-c2nn(-c3ccccc3)cc2C(=O)N/N=C/c2cccc(O)c2)cc1           70000

Fill in: selectivity ratio of COc1ccc(-c2nn(-c3ccccc3)cc2C(=O)N/N=C/c2cc(OC)c(OC)c(OC)c2)cc1 is ___
783
